- Test system: BRN2 (POU3F2), luciferase reporter assay
- experimental_protocol: cells
- condition_parameters: read-out: % of Inhibition (Luciferase assay) / 30µM
observable: inhibition at 30 µM
# include the unit after the value

Answered cases to consult:
# compound, system_under_test, inhibition at 30 µM
measured = [
    ("Cc1cc(C(=O)Nc2ccccc2)c2ccccc2n1 [B-1]", "BRN2 (POU3F2), luciferase reporter assay", "1.27%"),
    ("C/C(=N/Nc1nc2ccccc2[nH]1)c1ccc(F)cc1 [B-48]", "BRN2 (POU3F2), luciferase reporter assay", "-6.79%"),
]

Q: Give inhibition at 30 µM (BRN2 (POU3F2), luciferase reporter assay) of the following compound: Oc1ccc(/C=N\Nc2nc3ccccc3[nH]2)cc1Cl [B-62]
Ans: 91.6%

----------
- Test system: BRN2 (POU3F2), luciferase reporter assay
- experimental_protocol: cells
- condition_parameters: read-out: % of Inhibition (Luciferase assay) / 30µM
Decide using inhibition at 30 µM: a value greater than or equal to 70% is Criterion met, a smaller one is Criterion not met.

Worked cases, answers included:
# chemical_string, answer_label
data = [
    ("Clc1ccc(-c2ccc(-c3nc4ccccc4[nH]3)o2)cc1Cl", "Criterion met"),
    ("O=C(Oc1cccc(F)c1)c1cccc2ccccc12", "Criterion not met"),
]

Q: Is inhibition at 30 µM for Cc1ccc(-c2nc3cc(N)ccc3n2C)o1 at or above 70%?
Ans: Criterion not met

Q: Is inhibition at 30 µM for Oc1ccc(/C=N/Nc2nc3ccccc3[nH]2)cc1O at or above 70%?
Ans: Criterion not met

Q: Is inhibition at 30 µM for CC/C(=N\Nc1nc2ccccc2[nH]1)c1ccc(O)cc1 at or above 70%?
Ans: Criterion not met

Q: Is inhibition at 30 µM for c1ccc(-c2csc(-c3ccccn3)n2)cc1 at or above 70%?
Ans: Criterion not met

Q: Is inhibition at 30 µM for Clc1cccc(-c2ccc(-c3nc4cc(Cl)ccc4[nH]3)o2)c1 at or above 70%?
Ans: Criterion met

----------
- Test system: BRN2 (POU3F2), luciferase reporter assay
- experimental_protocol: cells
- condition_parameters: read-out: % of Inhibition (Luciferase assay) / 30µM
Dear colleague, classification is by inhibition at 30 µM, with ranges listed here: small value = under -70%, mid value = from -70% up to 70%, large value = 70% and over

Worked cases, answers included:
# chemical_string, answer_label
data = [
    ("C/C(=N/Nc1nc2ccccc2[nH]1)c1ccc(C)cc1", "large value"),
    ("Clc1ccccc1-c1ccc(-c2nc3ccccc3[nH]2)o1", "large value"),
    ("COc1ccc(CNc2ccc(C)cc2)c2ccccc12", "mid value"),
]

Q: Sort Clc1cc(Br)ccc1-c1ccc(-c2nc3ccccc3[nH]2)o1 into one of the categories.
Ans: large value

Q: Sort Cc1ccc(-c2nc3ccccc3n2C)o1 into one of the categories.
Ans: small value

Q: Sort c1ccc([C@H]2COC(c3cccs3)=N2)cc1 into one of the categories.
Ans: small value

Q: Sort Cn1c(N/N=C2/CCc3c(O)cccc32)nc2ccccc21 into one of the categories.
Ans: mid value

Q: Sort c1cc(-c2noc(C3CCCCC3)n2)ccn1 into one of the categories.
Ans: small value

Q: Sort c1ccc2c(c1)CCC/C2=N\Nc1nc2ccccc2[nH]1 into one of the categories.
Ans: large value
